molecular target: Cyclin-dependent kinase 2/cyclin A (Homo sapiens) (UniProt P24941+P20248+P78396); assay: Inhibition of CDK2/cyclin A at 10 uM by IMAP assay; assay type: protein-complex assay
The source made the active and inactive calls. No cut-off for these calls is given here.
measure name: inhibition

Below, 4 molecules whose answers are already recorded.
query_smiles=O=C1Nc2ccccc2/C1=C1\C(=O)N(c2ccccc2)c2ccccc21 measurement_target="Cyclin-dependent kinase 2/cyclin A (Homo sapiens) (UniProt P24941+P20248+P78396)" obs_value=inactive
query_smiles=CN1C(=O)/C(=C2/C(=O)Nc3ccccc32)c2ccccc21 measurement_target="Cyclin-dependent kinase 2/cyclin A (Homo sapiens) (UniProt P24941+P20248+P78396)" obs_value=inactive
query_smiles=COc1ccc(CCN2C(=O)/C(=C3/C(=O)Nc4ccccc43)c3ccccc32)cc1 measurement_target="Cyclin-dependent kinase 2/cyclin A (Homo sapiens) (UniProt P24941+P20248+P78396)" obs_value=inactive
query_smiles=O=C1Nc2cc(Br)ccc2/C1=C1/Nc2ccccc2/C1=N\O measurement_target="Cyclin-dependent kinase 2/cyclin A (Homo sapiens) (UniProt P24941+P20248+P78396)" obs_value=70%

Shift focus to the following entry.
inhibition for Cyclin-dependent kinase 2/cyclin A (Homo sapiens) (UniProt P24941+P20248+P78396) with input O=C1Nc2ccccc2/C1=C1\C(=O)N(CCCc2ccccc2)c2ccccc21 equals inactive

====

test system: K562; assay: cells; conditions: Homo sapiens, K562, 72 h
Description: Antiproliferative activity against human K562 cells after 72 hrs by MTT assay
Would you mind telling me the reported pIC50 of each entry?
Give bare numbers, as −log10 of the molar value.

Provide each entry's pIC50 from the list below.
1. CN1C(=O)/C(=C2/C(=O)Nc3ccccc32)c2ccccc21
2. O=C1Nc2ccccc2/C1=C1\C(=O)Nc2ccccc21
3. O=C1Nc2ccccc2/C1=C1\C(=O)N(CCc2ccccc2)c2ccccc21
4. COc1ccc(CCN2C(=O)/C(=C3/C(=O)Nc4ccccc43)c3ccccc32)cc1

Result block:
1: 5.17; 2: 5.17; 3: 5.14; 4: 5.85

====

system: HCT-116; experiment: cells; details: Homo sapiens, HCT-116, 72 h
Description: Antiproliferative activity against human HCT116 cells after 72 hrs by MTT assay
measure name: pIC50
Answers are plain numbers, as −log10 of the molar value.

Provide each entry's pIC50 from the list below.
1. COc1ccc(CCN2C(=O)/C(=C3/C(=O)Nc4ccccc43)c3ccccc32)cc1
2. CN1C(=O)/C(=C2/C(=O)Nc3ccccc32)c2ccccc21

Result block:
1. 4.94
2. 4.81

Provide each entry's pIC50 from the list below.
1. O=C1Nc2ccccc2/C1=C1\C(=O)N(CCc2ccccc2)c2ccccc21
2. O=Nc1c(-c2c(O)[nH]c3ccccc23)[nH]c2ccccc12

Result block:
4.91
4.92

====

test system: HL-60; assay: Antiproliferative activity against human HL60 cells after 5 days by MTT assay; assay type: functional, cell-based; settings: HL-60, 120 h
Would you mind telling me the reported IC50 of each entry?
Numbers only, in µM.

Below, 4 molecules whose answers are already recorded.
molecule="CN1C(=O)/C(=C2/C(=O)Nc3ccccc32)c2ccccc21 [MEISOINDIGO]" units_symbol=µM obs_value=12.2
molecule=O=C1Nc2ccccc2/C1=C1\C(=O)N(CCc2ccccc2)c2ccccc21 units_symbol=µM obs_value=11.9
molecule="O=Nc1c(-c2c(O)[nH]c3ccccc23)[nH]c2ccccc12 [INDIRUBIN-3-MONOXIME]" units_symbol=µM obs_value=15.7
molecule="O=C1Nc2ccccc2/C1=C1\\C(=O)Nc2ccccc21 [ISOINDIGO]" units_symbol=µM obs_value=16.6

Shift focus to the following entry.
IC50 for HL-60 with input COc1ccc(CCN2C(=O)/C(=C3/C(=O)Nc4ccccc43)c3ccccc32)cc1 equals 12

====

test system: K562; assay: cells; conditions: Homo sapiens, K562, 72 h
measure name: IC50

query_smiles=CC(=O)Nc1ccc(CCN2C(=O)/C(=C3/C(=O)Nc4ccccc43)c3ccccc32)cc1 obs_value="> 30 µM"
query_smiles=O=C1Nc2ccccc2/C1=C1\C(=O)N(CCc2ccc(O)cc2)c2ccccc21 obs_value="> 30 µM"
query_smiles=O=C1Nc2ccccc2/C1=C1\C(=O)N(CCc2ccc([N+](=O)[O-])cc2)c2ccccc21 obs_value="> 30 µM"
query_smiles=Cc1ccc(CCN2C(=O)/C(=C3/C(=O)Nc4ccccc43)c3ccccc32)cc1 obs_value="> 30 µM"

For this molecule ( O=Nc1c(-c2c(O)[nH]c3ccccc23)[nH]c2ccccc12 ), measured IC50 is > 30 µM
